- target.under.test: T1, huCD300F constitutively expressed on 293 Freestyle (Freestyle HEK) cells (human, UniProt Q8TDQ1 20-290)
- T1 construct: also called huCD300LF; Human CD300F
- T1 sequence: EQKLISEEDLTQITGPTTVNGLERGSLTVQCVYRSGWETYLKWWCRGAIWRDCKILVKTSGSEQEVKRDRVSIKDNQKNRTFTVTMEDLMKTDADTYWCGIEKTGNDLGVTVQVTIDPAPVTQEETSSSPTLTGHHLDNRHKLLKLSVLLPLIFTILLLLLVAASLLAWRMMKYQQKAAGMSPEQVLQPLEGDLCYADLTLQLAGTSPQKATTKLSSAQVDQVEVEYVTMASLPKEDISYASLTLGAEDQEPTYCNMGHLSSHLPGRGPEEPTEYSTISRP
- assay: flow cytometry, stable Freestyle HEK cells
property.measured: binding result

anti-CD300LB antibody CD-07 (antibody, V domains shown) VH: QVQLVQSGAEVKKPGASVKVSCKASGYTFTNYRMHWVRQAPGQGLEWMGWINPNSGGTIYAQKFQGRVTMTRDTSTSTVYMELSSLRSEDTAVYYCARDLDYWGQGTLVTVSS VL: DIQMTQSPSSLSASVGDRVTITCQASQDISNYLNWYQQKPGKAPKLLIYGASSLQSGVPSRFSGSGSGTDFTLTISSLQPEDFATYYCQQSYSTPWTFGPGTKVEIK = no binding
anti-CD300LB antibody CD-09 (antibody, V domains shown) VH: QVQLVQSGAEVKKPGASVKVSCKASGYTFTTYAVHWVRQAPGQGLEWMGIINPNSGGTNYAQKFQGRVTMTRDTSTSTVYMELSSLRSEDTAVYYCARDIVPMNNFYNYYYGMDVWGQGTTVTVSS VL: DIQMTQSPSSLSASVGDRVTITCRASQSISSYLNWYQQKPGKAPKLLIYATSTLQSGVPSRFSGSGSGTDFTLTISSLQPEDFATYYCQQSYRIPYTFGQGTKVEIK = no binding
anti-CD300LB antibody CD-08 (antibody, V domains shown) VH: EVQLLESGGGLVQPGGSLRLSCAASGFTFSNAWMSWVRQAPGKGLEWVSVISGSGGRTYYADSVKGRFTISRDNSKNTLYLQMNSLRAEDTAVYYCARDGTTVAPKGMDVWGQGTTVTVSS VL: DIQMTQSPSSLSASVGDRVTITCQASQDINNYVNWYQQKPGKAPKLLIYAASNLQSGVPSRFSGSGSGTDFTLTISSLQPEDFATYYCQQSYSPPYTFGQGTKLEIK = no binding
anti-CD300LB antibody CD-05 (antibody, V domains shown) VH: QVQLVQSGAEVKKPGASVKVSCKASGYTFSRYYINWVRQAPGQGLEWMGWINPNSGGTNYAQKFQGRVTMTRDTSTSTVYMELSSLRSEDTAVYYCTTDQLRFGKTGPYYGMDVWGQGTTVTVSS VL: DIQMTQSPSSLSASVGDRVTITCRASQNIGTYLNWYQQKPGKAPKLLIYAASSLQSGVPSRFSGSGSGTDFTLTISSLQPEDFATYYCQQSYSDTLTFGGGTKVEIK = no binding
